# test.system: T1, recombinant human Tau monomer, 2N4R isoform (amino acids 2-441) (human, UniProt P10636-8 2-441)
# T1 construct: range 2-441; N-terminal His-tag removed with TEV protease; also called monomeric Tau
# T1 sequence (P10636 other isoform, or with tags, fused parts or gaps limits assumed): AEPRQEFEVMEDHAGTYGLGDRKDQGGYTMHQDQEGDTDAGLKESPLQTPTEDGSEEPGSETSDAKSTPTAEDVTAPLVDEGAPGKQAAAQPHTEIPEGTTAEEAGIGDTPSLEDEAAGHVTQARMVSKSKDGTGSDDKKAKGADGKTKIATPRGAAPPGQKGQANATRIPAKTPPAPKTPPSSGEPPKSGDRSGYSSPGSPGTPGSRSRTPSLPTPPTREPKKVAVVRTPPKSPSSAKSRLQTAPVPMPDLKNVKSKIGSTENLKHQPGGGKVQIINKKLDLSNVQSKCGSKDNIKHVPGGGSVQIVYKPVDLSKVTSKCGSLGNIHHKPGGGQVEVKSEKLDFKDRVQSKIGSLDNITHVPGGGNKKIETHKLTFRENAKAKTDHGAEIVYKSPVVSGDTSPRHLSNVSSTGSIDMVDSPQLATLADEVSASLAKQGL
# protocol.details: SPR, captured IgG, Tau monomer analyte, 1:1 model; fit-quality column: Yes
# Kd values compiled below
Output spec: scalar in nM, unitless text.

hu37D3.v28.55 (antibody, V domains shown) VH: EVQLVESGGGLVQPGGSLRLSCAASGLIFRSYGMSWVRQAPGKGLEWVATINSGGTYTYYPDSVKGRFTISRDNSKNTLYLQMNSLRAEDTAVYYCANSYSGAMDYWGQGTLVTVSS VL: DDVLTQTPLSLPVTPGQPASISCRSSQSIVHSNQNTYFEWYLQKPGQSPQLLIYKVSNRFSGVPDRFSGSGSGTDFTLKISRVEAEDVGVYYCFQGSLVPWTFGQGTKVEIK: 2.6

Now consider the entry below.
For hu37D3.v29.13 (antibody, V domains shown) VH: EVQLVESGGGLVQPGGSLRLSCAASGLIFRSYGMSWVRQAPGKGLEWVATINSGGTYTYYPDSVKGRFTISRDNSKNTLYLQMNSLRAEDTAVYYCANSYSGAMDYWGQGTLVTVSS VL: EDVLTQTPLSLPVTPGQPASISCRSSQSIVHSNAKTYFEWYLQKPGQSPQLLIYKVSNRFSGVPDRFSGSGSGTDFTLKISRVEAEDVGVYYCFQGSLVPWTFGQGTKVEIK the binder record lists Kd as 6.7
